This collection of values is drawn from paper PMC4890880.

tested on: HepG2-A16-CD81EGFP cells; assay: cells; settings: Homo sapiens, HepG2, read-out: % inhibition
Reported inhibition at 50 µM values are given for each entry in this list.
readout.kind: inhibition at 50 µM (%)

>>> print(df.to_string())
                                    molecule  unit_symbol  reported_result
 0  CCC(C)NCC(O)(c1ccc(Cl)cc1)c1ccc(Cl)cc1 (centres unmarked) [MMV665928]            %             99.2
 1  O=C1CC(O)(C(F)(F)C(F)(F)F)Oc2ccccc21 (centres unmarked) [MMV000972]            %             96.7
 2   CCn1c2c(c(=N)c3c1CCC3)CCCC2 [MMV000340]            %             75.3
 3  Oc1ccccc1CN1CCC2(CCCN(Cc3ccccc3F)C2)C1 (centres unmarked) [MMV666116]            %             73.5
 4  COc1ccc2c(=O)cc(C(Cl)(Cl)Cl)oc2c1 [MMV665820]            %             96.4
 5  CCOC(=O)C1=C(C)N=c2sc(=Cc3ccccc3O)c(=O)n2C1c1ccc(OC)c2ccccc12 (centres unmarked) [MMV666604]            %            -7.73
 6  CSc1ccccc1C(=O)Nc1nc(-c2ccccn2)cs1 [MMV001246]            %             82.2
 7     Clc1ccc2c(N3CCCC3)ccnc2c1 [MMV007363]            %             39.1
 8  Oc1c(C(Nc2ccccn2)c2cccc(Oc3ccccc3)c2)ccc2cccnc12 (centres unmarked) [MMV665814]            %            -17.3
 9  Cn1c(=O)n(C)c2cc(CNCCNc3ccnc4cc(Cl)ccc34)ccc21 [MMV665875]            %             45.3
10  OC1CCCCC1C1(NC(=S)Nc2ccccc2)CCCCC1 (centres unmarked) [MMV665980]            %             82.2
11  CCOc1cc2c(cc1OCC)C(c1cc(Cl)c(O)c(OCC)c1)NCC2 (centres unmarked) [MMV000481]            %             20.4
12  CN(C)c1ccc(C=Cc2nc(=O)c3ccccc3o2)cc1 [MMV006309]            %             96.7
13  COc1cc(SC)ccc1C(=O)N1CCCC(C)C1 (centres unmarked) [MMV056726]            %             65.4
14  CCN(CC)CCCNc1nc(-c2ccc(Cl)cc2)nc2ccccc12 [MMV665961]            %               95
15  O=C(NC1CCCCC1)C(c1cccs1)N(CCc1ccccc1)C(=O)c1ccco1 (centres unmarked) [MMV666106]            %             76.6
16    CCCc1c(CC)c(=N)c2ccccc2n1C [MMV008416]            %             83.1
17  CCCCOC(=O)c1ccc(Nc2cc(C)nc3ccc(OC)cc23)cc1 [MMV665797]            %             95.1
18  COc1ccc(C2Sc3ccccc3N=C3C2=C(O)c2ccccc23)cc1 (centres unmarked) [MMV000563]            %             62.5
19  COc1ccc(-c2nonc2NC(=O)c2cccc(C)c2)cc1OC [MMV665890]            %            -1.53

====

system: Plasmodium berghei (Pb-Luc) exoerythrocytic-stage parasites; experiment: microbe, parasite or virus in culture; settings: read-out: PbLuc IC50, dose response, 1/3 dilutions, max conc. 10 or 50 uM, unit inferred
readout.kind: IC50 (µM)

In [3]: df
Out[3]:
                                   molecule  readout_kind  reported_result
0  Cc1ccc(N2C3c4ccccc4N(S(=O)(=O)c4ccc(C)cc4)C2c2ccccc2N3S(=O)(=O)c2ccc(C)cc2)cc1 [MMV007160]          IC50           0.0367
1  COc1cc(C(=O)ON=C(N)Cc2cccc3ccccc23)cc(OC)c1OC [MMV666687]          IC50             12.6
2  Clc1cc(Br)ccc1-c1ccc(CNCC2CCNCC2)o1 [MMV019918]          IC50             8.14
3  COc1ccc(C(=O)NC(c2ccc(Cl)cc2Cl)c2cc(Cl)c3cccnc3c2O)cc1 (stereo not shown) [MMV666054]          IC50             1.58

====

test system: Plasmodium berghei (Pb-Luc) exoerythrocytic-stage parasites; conditions: second series; concentration 0.00152416; fraction of control
readout.kind: normalized signal at concentration 0.00152416

In [3]: df
Out[3]:
                                 mol_smiles  reported_result
0  COc1cccc(CN2[C@H](CO)[C@@H](c3ccccc3)C23CN(Cc2ccccc2OC)C3)c1             0.84
1  C[C@@H]1CCCCO[C@@H](CN(C)S(=O)(=O)c2ccc(F)cc2)[C@@H](C)CN([C@H](C)CO)C(=O)c2cc(N(C)C)ccc2O1             0.98
2  C[C@H]1CN([C@@H](C)CO)C(=O)c2cc(C#Cc3ccccc3)cnc2O[C@H]1CN(C)C(=O)c1ccccc1             0.85
3  CN(C)c1ccc2c(c1)[C@@H]1C[C@@H](CC(=O)NC3CCCCC3)O[C@@H](CO)[C@@H]1O2             1.06
4  CCc1csc(N2[C@H](CO)[C@H](c3ccccc3)[C@@H]2CNC)n1           0.9242
5  C[C@H]1CCCCO[C@H](CN(C)S(=O)(=O)c2ccc(F)cc2)[C@@H](C)CN([C@@H](C)CO)C(=O)c2cc(N(C)C)ccc2O1             0.83

====

tested on: Plasmodium berghei (Pb-Luc) exoerythrocytic-stage parasites; settings: second series of columns (replicate); concentration 3.33333; fraction of control
readout.kind: normalized signal at concentration 3.33333

                                 mol_smiles  reported_result
0  C[C@@H]1CCCCO[C@H](CN(C)S(=O)(=O)c2ccc(F)cc2)[C@@H](C)CN([C@@H](C)CO)C(=O)c2cc(N(C)C)ccc2O1            1.121
1  O=C(O)C[C@H]1CC[C@@H]2[C@H](COC[C@@H](O)CN2S(=O)(=O)c2ccc(Oc3ccccc3)cc2)O1            1.071
2  Cc1noc(C)c1S(=O)(=O)N(C)C[C@@H]1OCCCC[C@@H](C)Oc2ccc(N(C)C)cc2C(=O)N([C@@H](C)CO)C[C@H]1C           0.8811
3  Cc1noc(C)c1S(=O)(=O)N(C)C[C@H]1OCc2cn(nn2)CCCC(=O)N([C@@H](C)CO)C[C@@H]1C           0.8793
4  CO[C@H]1CN(C)C(=O)c2cc(NC(=O)c3cccc(F)c3)ccc2OC[C@H](C)N(C)C[C@H]1C           0.9295
5  COc1cccc(S(=O)(=O)N2CCCCN3[C@H](CO)[C@H](c4ccc(C#CCC(C)C)cc4)[C@H]3C2)c1            1.117

====

test system: Plasmodium berghei (Pb-Luc) exoerythrocytic-stage parasites; assay: microbe, parasite or virus in culture; conditions: read-out: Inhibition% @ 50 uM rep2
readout.kind: inhibition at 50 µM (%)

>>> print(df.to_string())
                                    compound         readout_kind  reported_result
 0     COc1cc2cc(C(=O)Nc3ccccc3)c(N)nc2cc1OC  inhibition at 50 µM               39
 1           COc1ccc2nc(C)cc(Nc3ccccc3O)c2c1  inhibition at 50 µM              100
 2  CCCCOC(=O)c1ccc(Nc2cc(C)nc3ccc(OC)cc23)cc1  inhibition at 50 µM              101
 3   Cc1cc(Nc2ccc(Cl)cc2)n2nc(C(F)(F)F)nc2n1  inhibition at 50 µM              104
 4  Cc1cc(C=C2SC(=Nc3ccccc3)N(C3CCCC3)C2=O)c(C)n1-c1ccc(Cl)cc1  inhibition at 50 µM            0.839
 5  COc1ccc(C(=O)Nc2ccc3nc(N4CCCCC4)cc(C)c3c2)cc1OC  inhibition at 50 µM              104
 6                   Oc1c2c(nc3ccccc13)CCCC2  inhibition at 50 µM              100
 7  COc1cccc(Cn2c(Oc3ccccc3)nc3c2c(=O)n(C)c(=O)n3C)c1  inhibition at 50 µM               99
 8               CCOC(=O)c1cnc2c(CC)cccc2c1O  inhibition at 50 µM              103
 9  COCCN(C(=O)Cc1cccs1)C(C(=O)NCc1ccc(OC)cc1)c1ccc(C(C)C)cc1 (stereo not shown)  inhibition at 50 µM              105
10  CCCCCn1c(=N)n(CC(O)COc2cccc(C)c2)c2ccccc21 (stereo not shown)  inhibition at 50 µM              103
11  COc1cc(C(=O)Nc2nc3c(cc4c5c(cccc53)CC4)s2)cc(OC)c1OC  inhibition at 50 µM               80
12       CN(C)c1ccc(N2C(N)=NC(N)=NC2(C)C)cc1  inhibition at 50 µM               82
13        COc1ccc2nc(C)cc(Nc3ccc(Cl)cc3)c2c1  inhibition at 50 µM              101
14  COc1ccc(Nc2nc(NN=Cc3ccc(O)cc3)nc(Nc3ccc([N+](=O)[O-])cc3)n2)cc1  inhibition at 50 µM               98
15     Fc1ccc2[nH]c3c(NCCCN4CCOCC4)ncnc3c2c1  inhibition at 50 µM              103
16      Cc1ccc(-c2cc3nc4c(c(O)n3n2)CCCC4)cc1  inhibition at 50 µM              102
17  O=C(Nc1ccc(-c2nc3cc(NC(=O)c4ccc(Cl)cc4)ccc3[nH]2)cc1)c1ccc(Cl)cc1  inhibition at 50 µM              103
18        CSc1ccccc1C(=O)Nc1nc(-c2ccccn2)cs1  inhibition at 50 µM              104
